- target system: D(2) dopamine receptor (Homo sapiens)
- Sequence (P14416 whole entry): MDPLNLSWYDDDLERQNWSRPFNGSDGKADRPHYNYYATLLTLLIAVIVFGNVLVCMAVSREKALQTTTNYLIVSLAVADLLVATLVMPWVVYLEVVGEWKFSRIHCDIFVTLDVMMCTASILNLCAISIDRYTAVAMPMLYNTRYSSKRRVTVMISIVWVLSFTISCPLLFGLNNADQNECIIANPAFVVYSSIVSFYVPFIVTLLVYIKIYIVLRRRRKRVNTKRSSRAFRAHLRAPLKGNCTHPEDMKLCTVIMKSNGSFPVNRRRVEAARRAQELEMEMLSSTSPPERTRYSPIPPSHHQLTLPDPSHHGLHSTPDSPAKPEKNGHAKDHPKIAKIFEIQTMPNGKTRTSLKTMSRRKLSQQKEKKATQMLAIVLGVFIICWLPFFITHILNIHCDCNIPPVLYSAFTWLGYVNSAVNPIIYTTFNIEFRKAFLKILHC
- test protocol: Displacement of [3H]raclopride from human recombinant dopamine D2 long receptor expressed in CHO-K1 cells at 1 uM incubated for 120 mins by scintillation counting analysis
- Format: cell-based
For each record, write down the corresponding inhibition.
Give the value, in units of %, as a plain number.

Reported inhibition, compound O=S(=O)(c1ccccc1)N1CCc2c(N3CCNCC3)cccc21 : ____
22

Reported inhibition, compound CCN1CCC(c2cccc3c2CN(S(=O)(=O)c2ccccc2)C3)CC1 : ____
27

Reported inhibition, compound CN1CCN(c2ccc3c(c2)N(S(=O)(=O)c2ccccc2)CC3)CC1 : ____
52

Reported inhibition, compound CCCN1CCN(c2ccc3c(c2)CN(S(=O)(=O)c2ccccc2)C3)CC1 : ____
29

Reported inhibition, compound CCCN1CCC(c2ccc3c(c2)N(S(=O)(=O)c2ccccc2)CC3)CC1 : ____
59

Reported inhibition, compound O=S(=O)(c1ccccc1)N1CCc2ccc(C3CCNCC3)cc21 : ____
27
